Below, each entry is listed with its recorded relative viability.
System: LC-2-ad
Experiment: relative viability (nuclei count vs DMSO), 5 days (fraction); higher = more cells survive
Conditions: first compound 2.53 µM
assay_metric: relative viability

molecule: O=c1[nH]c2ccccc2n1C1CCN(CCCC(c2ccc(F)cc2)c2ccc(F)cc2)CC1 [Pimozide] + CC(C)C[C@H](NC(=O)[C@H](Cc1ccccc1)NC(=O)c1cnccn1)B(O)O [Bortezomib] (partner 0.002 µM)
measured_value: 1.03

molecule: O=c1[nH]c2ccccc2n1C1CCN(CCCC(c2ccc(F)cc2)c2ccc(F)cc2)CC1 [Pimozide] + O=C(CCCCCCC(=O)Nc1ccccc1)NO [Vorinostat] (partner 1 µM)
measured_value: 0.653

molecule: O=c1[nH]c2ccccc2n1C1CCN(CCCC(c2ccc(F)cc2)c2ccc(F)cc2)CC1 [Pimozide] + CS(=O)(=O)N1CCN(Cc2cc3nc(-c4cccc5[nH]ncc45)nc(N4CCOCC4)c3s2)CC1 [Pictilisib] (partner 1 µM)
measured_value: 0.553

molecule: O=c1[nH]c2ccccc2n1C1CCN(CCCC(c2ccc(F)cc2)c2ccc(F)cc2)CC1 [Pimozide] + Cc1cc(Nc2cc(N3CCN(C)CC3)nc(Sc3ccc(NC(=O)C4CC4)cc3)n2)n[nH]1 [Tozasertib] (partner 0.1 µM)
measured_value: 0.385

* * *

Below, each entry is listed with its recorded relative viability.
Tested on: NCI-H2023
Experiment: relative viability (nuclei count vs DMSO), 5 days (fraction); higher = more cells survive
Conditions: first compound 2.53 µM

compound: O=c1[nH]c2ccccc2n1C1CCN(CCCC(c2ccc(F)cc2)c2ccc(F)cc2)CC1 [Pimozide] + CC(=O)Nc1cccc(-n2c(=O)n(C3CC3)c(=O)c3c(Nc4ccc(I)cc4F)n(C)c(=O)c(C)c32)c1 [Trametinib] (partner 0.02 µM)
relative viability: 0.429
--
compound: Cc1cnc(-c2cnc(NCCNc3ccc(C#N)cn3)nc2-c2ccc(Cl)cc2Cl)[nH]1 + CC1(C)CCC(c2ccc(Cl)cc2)=C(CN2CCN(c3ccc(C(=O)NS(=O)(=O)c4ccc(N[C@H](CCN5CCOCC5)CSc5ccccc5)c(S(=O)(=O)C(F)(F)F)c4)cc3)CC2)C1 [Navitoclax] (partner 0.5 µM)
relative viability: 1.09
--
compound: Cc1cnc(-c2cnc(NCCNc3ccc(C#N)cn3)nc2-c2ccc(Cl)cc2Cl)[nH]1 + CS(=O)(=O)N1CCN(Cc2cc3nc(-c4cccc5[nH]ncc45)nc(N4CCOCC4)c3s2)CC1 [Pictilisib] (partner 1 µM)
relative viability: 0.813
--
compound: O=c1[nH]c2ccccc2n1C1CCN(CCCC(c2ccc(F)cc2)c2ccc(F)cc2)CC1 [Pimozide] + CC(C)C[C@H](NC(=O)[C@H](Cc1ccccc1)NC(=O)c1cnccn1)B(O)O [Bortezomib] (partner 0.002 µM)
relative viability: 0.884

* * *

System: HCC-15
Assay: relative viability (nuclei count vs DMSO), 5 days (fraction); higher = more cells survive
Settings: first compound 0.0002 µM
assay_metric: relative viability

molecule: CC(=O)O[C@@]12CO[C@@H]1C[C@H](O)[C@@]1(C)C(=O)[C@H](O)C3=C(C)[C@@H](OC(=O)[C@H](O)[C@@H](NC(=O)OC(C)(C)C)c4ccccc4)C[C@@](O)([C@@H](OC(=O)c4ccccc4)[C@H]21)C3(C)C [Docetaxel] + Nc1ncn([C@H]2C[C@H](O)[C@@H](CO)O2)c(=O)n1 [Decitabine] (partner 2 µM)
target_system: HCC-15
assay_metric: relative viability
measured_value: 0.58

molecule: CC(=O)O[C@@]12CO[C@@H]1C[C@H](O)[C@@]1(C)C(=O)[C@H](O)C3=C(C)[C@@H](OC(=O)[C@H](O)[C@@H](NC(=O)OC(C)(C)C)c4ccccc4)C[C@@](O)([C@@H](OC(=O)c4ccccc4)[C@H]21)C3(C)C [Docetaxel] + C[C@@H](Oc1cc(-c2cnn(C3CCNCC3)c2)cnc1N)c1c(Cl)ccc(F)c1Cl [Crizotinib] (partner 1 µM)
target_system: HCC-15
assay_metric: relative viability
measured_value: 0.818

molecule: CC(=O)O[C@@]12CO[C@@H]1C[C@H](O)[C@@]1(C)C(=O)[C@H](O)C3=C(C)[C@@H](OC(=O)[C@H](O)[C@@H](NC(=O)OC(C)(C)C)c4ccccc4)C[C@@](O)([C@@H](OC(=O)c4ccccc4)[C@H]21)C3(C)C [Docetaxel] + CS(=O)(=O)CCNCc1ccc(-c2ccc3ncnc(Nc4ccc(OCc5cccc(F)c5)c(Cl)c4)c3c2)o1 [Lapatinib] (partner 2 µM)
target_system: HCC-15
assay_metric: relative viability
measured_value: 0.681

molecule: CC(=O)O[C@@]12CO[C@@H]1C[C@H](O)[C@@]1(C)C(=O)[C@H](O)C3=C(C)[C@@H](OC(=O)[C@H](O)[C@@H](NC(=O)OC(C)(C)C)c4ccccc4)C[C@@](O)([C@@H](OC(=O)c4ccccc4)[C@H]21)C3(C)C [Docetaxel] + N=C(N)NC(=N)NCCc1ccccc1 [Phenformin] (partner 250 µM)
target_system: HCC-15
assay_metric: relative viability
measured_value: 0.402
